- System: UACC-257 melanoma
- Assay: NCI tumour cell line growth inhibition, 48 h; in the data active = GI50 below about 0.43 µM; inactive = the rest
The categories you may choose from are True for active, False for inactive

Kindly provide the recorded test outcome for the following compound: COC(=O)C1=CN(CC2=CC(=O)C(C)=CC2=O)C=C(C(=O)OC)C1c1cccc(OC)c1OC False

Please state the recorded outcome for this compound: Cn1c2ccccc2c2c(=O)n(CCCC(=O)NCC(=O)OC(=NC3CCCCC3)NC3CCCCC3)c3c(-c4ccccc4)nnn3c21 False

Called result for OCCNc1nc(NCCO)nc(Nc2ccc(C3=NN(c4cc(Cl)cc(Cl)c4)C(c4ccc(Cl)cc4)C3)cc2)n1 (stereo not given) False

Any idea what this test logged for CC[C@@]1(O)C(=O)NCc2c1cc1n(c2=O)Cc2cc3cc4c(cc3nc2-1)OCO4 ? False

Recorded test outcome, item COC(=O)c1c2c(c(C)[n+]([O-])c1C)C(=O)C=C(NCc1ccc(Cl)cc1)C2=O True

// outcome(item) with item = COc1nccc(-c2c(-c3ccc(F)cc3)ncn2C2CCC(O)CC2)n1 (stereo not given) False

Any idea what this test logged for C[C@]12CC[C@H]3[C@@H](CC=C4C[C@@H](O)CC[C@@]43C)[C@@H]1C/C(=C\c1cccc(OCCN3CCOCC3)c1)[C@@H]2O ? False

Assay result, entry Cc1c(C(=O)/C=C/c2ccc(O)cc2)nnn1-c1ccnc2c(C(F)(F)F)cccc12 — outcome? False

Recorded call for O=C1N=C2c3c(sc4c3CCCC4)N=CN2C1N=Nc1ccc(Cl)cc1 (stereo not given) ? False

Short answer needed: outcome of this test for O=c1cc/c(=N\Nc2ccccc2)c(=O)/c1=N/Nc1ccccc1 ? False

Recorded values, source PubChem BioAssay (NCI).
